- System: phospho-FMS in THP-1 cells
- assay info: Phospho-FMS ELISA assay in THP-1 cells
- Assay type: cell-based
- experimental conditions: Homo sapiens, 4 h compound, M-CSF stimulation 5 min, read-out: pFMS inhibition in THP-1 cells
pIC50: −log10 of the molar value.
property measured: pIC50

Example results:
Cc1nc(-n2nc(CC(C)(C)C)[nH]c2=O)ccc1Oc1ccnc(-c2cnn(C)c2)c1
7.00 to 8.00
Cn1cc(-c2cc(Oc3ccc(-n4nc(C(C)(C)C)[nH]c4=O)nc3)ccn2)cn1
7.00 to 8.00
Cc1nc(-n2nc(C(C)(C)C)[nH]c2=O)ccc1Oc1ccnc(-c2cnco2)c1
6.00 to 7.00
Cc1cc(-c2cc(Oc3ccc(-n4nc(C(C)(C)C)[nH]c4=O)nc3C)ccn2)ccn1
7.00 to 8.00

Query: What value of pIC50 has been reported for the following compound? `Cc1nc(-n2nc(C3CCCCC3)[nH]c2=O)ccc1Oc1ccnc(-c2cnn(C)c2)c1`
Reply: ≥ 8.00
